The entries below are paired with their reported T/C.
Tested on: L1210 leukemia ip in BDF1 mice, survival T/C
assay_info: NCI In Vivo Anticancer Drug Screen. Data for tumor model L1210 Leukemia (intraperitoneal) in B6D2F1 (BDF1) mice
protocol_conditions: endpoint: mean survival time; dose: 12.5 mg/kg/injection; schedule: Q04DX003 (ip); vehicle: saline with Tween-80; higher = longer survival
Inconclusive results and toxic doses are left out.

Use these answered entries as a reference point.
In [3]: df
Out[3]:
                                   compound   reported_result
0  OC1CCC2=C(C1)C1CCC2C1 (stereo unspecified)   96 % of control
1  COc1ccc(C(=O)CCN2CCC(O)(c3ccccc3)CC2)cc1  100 % of control

# input for lookup
Consider the compound shown here: O=C(CC(=O)C(F)(F)F)c1ccccc1.O=C(CC(=O)C(F)(F)F)c1ccccc1.[Cu] What is its recorded T/C?
92 % of control

----------
The entries below are paired with their reported T/C.
System: L1210 leukemia ip in BDF1 mice, survival T/C
assay_info: NCI In Vivo Anticancer Drug Screen. Data for tumor model L1210 Leukemia (intraperitoneal) in B6D2F1 (BDF1) mice
protocol_conditions: endpoint: mean survival time; dose: 50.0 mg/kg/injection; schedule: Q01DX001 (ip); vehicle: Klucel (hydroxypropylcellulose) (HPC); higher = longer survival
Inconclusive results and toxic doses are left out.

Use these answered entries as a reference point.
                                   molecule  parameter_measured   reported_result
0  CC(C)(C)C1=CC(=O)N2CC=CCC2(C#N)C1=O (centres undefined)                 T/C   99 % of control
1  NS(=O)(=O)c1ccc(NC(=O)Nc2cccc(CNC(=O)Cc3ccc(Cl)cc3C(=O)O)c2)cc1                 T/C  104 % of control
2  CC1(C(=O)c2ccccc2)CN(C(C)(C)C)C1c1ccccc1 (centres undefined)                 T/C   97 % of control

# input for lookup
Consider the molecule shown here: CCCCCCCCCCCCCCC/C(CC)=N/Nc1ccc([N+](=O)[O-])cc1[N+](=O)[O-] What is its recorded T/C?
101 % of control

----------
Tested on: L1210 leukemia ip in BDF1 mice, survival T/C
assay_info: NCI In Vivo Anticancer Drug Screen. Data for tumor model L1210 Leukemia (intraperitoneal) in B6D2F1 (BDF1) mice
protocol_conditions: endpoint: mean survival time; dose: 25.0 mg/kg/injection; schedule: Q04DX003 (ip); vehicle: saline with Tween-80; higher = longer survival
Procedure: The antitumor activity of compounds was measured in mice bearing transplantable tumors. Survival or tumor size were measured and the results are expressed as the measurement made in the treated group (T) divided by the measurement made in the vehicle treated control group (C). The tumor model used in this assay is L1210 Leukemia (intraperitoneal) in B6D2F1 (BDF1) mice
Inconclusive results and toxic doses are left out.
parameter_measured: T/C

Use these answered entries as a reference point.
In [3]: df
Out[3]:
                                   compound                               target_desc   reported_result
0   CON(C)CC(Cl)c1ccccc1 (stereo not drawn)  L1210 leukemia ip in BDF1 mice, survival T/C  104 % of control
1  N#CC1(C#N)C2C=CC(C3C(Cl)C=CC32)C1(C#N)C#N (stereo not drawn)  L1210 leukemia ip in BDF1 mice, survival T/C   94 % of control
2                    CN(C)N=Nc1ccccc1C(=O)O  L1210 leukemia ip in BDF1 mice, survival T/C  104 % of control
3  O=C(OCC1CC1)c1cc([N+](=O)[O-])cc([N+](=O)[O-])c1  L1210 leukemia ip in BDF1 mice, survival T/C  108 % of control
4                 O=C1C=CC(=O)N1c1ccc(F)cc1  L1210 leukemia ip in BDF1 mice, survival T/C  108 % of control

Consider the compound shown here: C(=C\[P+](Cc1ccccc1)(c1ccccc1)c1ccccc1)/c1ccccc1 What is its recorded T/C?
92 % of control

What about this compound? CN(C)Cc1c[nH]c2ncccc12
102 % of control

What about this compound? CCCCC(=O)N(c1ccc(Nc2c3ccccc3nc3cc([N+](=O)[O-])ccc23)cc1)S(C)(=O)=O
153 % of control

----------
The entries below are paired with their reported T/C.
Tested on: L1210 leukemia ip in BDF1 mice, survival T/C
assay_info: NCI In Vivo Anticancer Drug Screen. Data for tumor model L1210 Leukemia (intraperitoneal) in B6D2F1 (BDF1) mice
protocol_conditions: endpoint: mean survival time; dose: 50.0 mg/kg/injection; schedule: Q01DX001 (ip); vehicle: saline; higher = longer survival
Inconclusive results and toxic doses are left out.

Use these answered entries as a reference point.
In [3]: df
Out[3]:
                                  molecule  parameter_measured   reported_result
0         COc1ccc(-c2oc3ccccc3c(=O)c2O)cc1                 T/C  104 % of control
1                               NCCNCCNCCN                 T/C   95 % of control
2  Cc1[nH]c2ccccc2c1C(=O)Cc1ccc(Cl)c(Cl)c1                 T/C  101 % of control

Consider the molecule shown here: O=C(OCC1OC(n2ccc(=S)[nH]c2=O)C(OC(=O)c2ccccc2)C1OC(=O)c1ccccc1)c1ccccc1 (stereo unspecified) What is its recorded T/C?
98 % of control

What about this molecule? COC(OC)c1cc(=O)[nH]c(N)n1
103 % of control

What about this molecule? CC1(C)N=C(N)N=C(N)N1c1cc(Cl)ccc1Cl
98 % of control

----------
Test system: L1210 leukemia ip in BDF1 mice, survival T/C
assay_info: NCI In Vivo Anticancer Drug Screen. Data for tumor model L1210 Leukemia (intraperitoneal) in B6D2F1 (BDF1) mice
protocol_conditions: endpoint: mean survival time; dose: 100.0 mg/kg/injection; schedule: Q01DX001 (ip); vehicle: saline; higher = longer survival
Toxic doses and inconclusive results are not listed.
parameter_measured: T/C

                                   compound   reported_result
0                        O=Cc1ccc2cccnc2c1O  108 % of control
1  O=[N+]([O-])c1ccc(CC2=NCCc3cc4c(cc32)OCO4)cc1   98 % of control
2                           CCCCCCCNN=C(N)N   98 % of control

Consider the compound shown here: CCOC(=O)C1CCNC(=O)C1=O (stereo not drawn) What is its recorded T/C?
101 % of control

What about this compound? CN(C)S(=O)(=O)c1ccc(NC(=O)OC2CCCCCCC2)cc1
96 % of control

What about this compound? C=CC1CN2CCC1CC2C(=O)c1ccnc2ccc(OC)cc12 (stereo not drawn)
102 % of control

What about this compound? CC(=O)OCCc1nnnn1C
108 % of control

What about this compound? CCOC(=O)CC(O)(COC)c1ccccc1 (stereo not drawn)
100 % of control

What about this compound? N#Cc1cn(C2OC(CO)C(O)C2O)c2ncnc(Cl)c12 (stereo not drawn)
103 % of control

What about this compound? O=c1ccc(=O)n(CCc2ccccn2)[nH]1
97 % of control

What about this compound? Cc1ccc2cccc3c(=O)c4cccc5cccc(sc1c23)c54
88 % of control

What about this compound? CCOC(=O)/C(=C/c1ccc(OC)c(OC)c1)P(=O)(OCC)OCC
95 % of control

What about this compound? Cc1nnc(Cl)c2ccccc12
95 % of control

----------
System: L1210 leukemia ip in BDF1 mice, survival T/C
assay_info: NCI In Vivo Anticancer Drug Screen. Data for tumor model L1210 Leukemia (intraperitoneal) in B6D2F1 (BDF1) mice
protocol_conditions: endpoint: mean survival time; dose: 100.0 mg/kg/injection; schedule: Q01DX001 (ip); vehicle: Klucel (hydroxypropylcellulose) (HPC); higher = longer survival
Toxic doses and inconclusive results are not listed.
parameter_measured: T/C

                                   compound  parameter_measured   reported_result
0  COC(=O)N1C(c2ccc(OC)cc2)CS1(=O)=O (stereo unspecified)                 T/C   97 % of control
1  O=C(C[P+](c1ccccc1)(c1ccccc1)c1ccccc1)c1ccccc1                 T/C   97 % of control
2        O=[N+]([O-])c1cccc(/C(Cl)=C/CCl)c1                 T/C  101 % of control
3  CCCCCCCCCCCCCCCCN(C)C(=S)c1ccc(Cl)c(Cl)c1                 T/C  100 % of control

Enter reported T/C observed with L1210 leukemia ip in BDF1 mice, survival T/C for CCC(C(=O)c1cccs1)C(O)(C(F)(F)F)C(F)(F)F (stereo unspecified)
102 % of control

What about this compound? Cc1ncc2c(=O)n(-c3ccc(C(=O)O)cc3)[nH]c2n1
94 % of control
